# Test system: S. cerevisiae Burl-1 ts mutant growth, BacTiter-Glo, 38.5C 24 h
# METHOD NOTES: restored growth of temperature-sensitive Burl-1 yeast – whole organism, S. cerevisiae, Burl-1 ts mutant, luminescence, counter-screen for SUMOylation pathway inhibitor project, dose response (AID 463199)
Calls of active or inactive are those of the source.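 The calls were made as follows: active = AC50, the dose giving half-maximal effect, exceeds a fixed cutoff for a compound that rescues yeast growth under heat; inactive = the rest, inconclusive results apart.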
Would you mind answering with one of these outcomes? t for active, f for inactive

Previously resolved entries follow.
Hi, do you know how "Nc1nc(SCc2nc3scc(-c4cccs4)c3c(=O)[nH]2)n[nH]1" came out in this test?
f

What call does the record list for "CN(C)CC/C=C1/c2cc(F)ccc2Sc2ccc(Cl)cc21" ?
f

In this assay, the call recorded for "COCCNC(=O)C(=O)N/N=C(\C)CC(=O)Nc1cccc(C(F)(F)F)c1" was what?
f

Hi, do you know how O=C(O)C1C(C(=O)O)C2(Cl)C(Cl)=C(Cl)C1(Cl)C2(Cl)Cl (centres undefined) came out in this test?
f

Here is another compound to look at.
I'd appreciate the recorded outcome for "O=C(Cc1ccc(Cl)cc1Cl)OCC(=O)c1ccc[nH]1" from this test.
f
